# assay-protocol: Noncompartmental pharmacokinetic analysis of plasma concentrations after single oral dose of artefenomel and DSM265 in combination
# Assay type: in vivo, human
# condition-notes: human, plasma, po, cohort 2 (n = 5), single oral dose 200 mg artefenomel plus 50 mg DSM265, plasma; read-out: Cmax, geometric mean
measurement-label: Cmax (ng/mL)

- Cc1cc(Nc2ccc(S(F)(F)(F)(F)F)cc2)n2nc(C(C)(F)F)nc2n1 [DSM265]: 3580
- c1cc([C@H]2CC[C@]3(CC2)OO[C@]2(O3)C3CC4CC(C3)CC2C4)ccc1OCCN1CCOCC1 [Artefenomel]: 412

* * *

# assay-protocol: Noncompartmental pharmacokinetic analysis of plasma concentrations after single oral dose of artefenomel and DSM265 in combination
# Format: in vivo, human
# condition-notes: human, plasma, oral, cohort 2 (n = 5), 200 mg artefenomel plus 50 mg DSM265, plasma; read-out: Cmax, range
# Procedure: Plasma samples were analyzed by liquid chromatography-tandem mass spectrometry (HPLC-MS/MS) as previously described ([2], [4]). […] These provide an estimate of the efficacy of an antimalarial treatment; with the former being the ratio of the parasite density decrease over a 48-h period (expressed as the log10 transformed cohort-specific PRR48 [log10 PRR48]). […]
measurement-label: Cmax

* Cc1cc(Nc2ccc(S(F)(F)(F)(F)F)cc2)n2nc(C(C)(F)F)nc2n1 | 2150 to 4340 ng/mL
* c1cc([C@H]2CC[C@]3(CC2)OO[C@]2(O3)C3CC4CC(C3)CC2C4)ccc1OCCN1CCOCC1 | 307 to 522 ng/mL

* * *

Listed below: AUC(0-inf) values for each entry.
# assay-protocol: Noncompartmental pharmacokinetic analysis of plasma concentrations after single oral dose of artefenomel and DSM265 in combination
# Assay type: in vivo, human
# condition-notes: human, plasma, oral, cohort 1 (n = 8), 200 mg artefenomel plus 100 mg DSM265; read-out: AUC0–∞, range
measurement-label: AUC(0-inf)

• Cc1cc(Nc2ccc(S(F)(F)(F)(F)F)cc2)n2nc(C(C)(F)F)nc2n1 = 360 to 634 µg·h/mL
• c1cc([C@H]2CC[C@]3(CC2)OO[C@]2(O3)C3CC4CC(C3)CC2C4)ccc1OCCN1CCOCC1 = 1.11 to 5.09 µg·h/mL

* * *

# assay-protocol: Noncompartmental pharmacokinetic analysis of plasma concentrations after single oral dose of artefenomel and DSM265 in combination
# Assay type: in vivo, human
# condition-notes: human, plasma, oral, cohort 1 (n = 8), 200 mg artefenomel plus 100 mg DSM265, plasma; read-out: Cmax, range
measurement-label: Cmax

- c1cc([C@H]2CC[C@]3(CC2)OO[C@]2(O3)C3CC4CC(C3)CC2C4)ccc1OCCN1CCOCC1: 150 to 597 ng/mL
- Cc1cc(Nc2ccc(S(F)(F)(F)(F)F)cc2)n2nc(C(C)(F)F)nc2n1: 4150 to 6880 ng/mL

* * *

# assay-protocol: Noncompartmental pharmacokinetic analysis of plasma concentrations after single oral dose of artefenomel and DSM265 in combination
# Type: in vivo, human
# condition-notes: human, plasma, oral, cohort 2 (n = 5), 200 mg artefenomel plus 50 mg DSM265; read-out: tmax, median
measurement-label: Tmax

* Cc1cc(Nc2ccc(S(F)(F)(F)(F)F)cc2)n2nc(C(C)(F)F)nc2n1 [DSM265] | 2 h
* c1cc([C@H]2CC[C@]3(CC2)OO[C@]2(O3)C3CC4CC(C3)CC2C4)ccc1OCCN1CCOCC1 [Artefenomel] | 5 h

* * *

Listed below: Vd/F values for each entry.
# assay-protocol: Noncompartmental pharmacokinetic analysis of plasma concentrations after single oral dose of artefenomel and DSM265 in combination
# Type: in vivo, human
# condition-notes: human, plasma, oral, cohort 2 (n = 5), 200 mg artefenomel plus 50 mg DSM265; read-out: Vz/F, range
measurement-label: Vd/F

• c1cc([C@H]2CC[C@]3(CC2)OO[C@]2(O3)C3CC4CC(C3)CC2C4)ccc1OCCN1CCOCC1 = 4590 to 14300 L
• Cc1cc(Nc2ccc(S(F)(F)(F)(F)F)cc2)n2nc(C(C)(F)F)nc2n1 = 19 to 34 L

* * *

# assay-protocol: Noncompartmental pharmacokinetic analysis of plasma concentrations after single oral dose of artefenomel and DSM265 in combination
# Type: in vivo, human
# condition-notes: human, plasma, oral, cohort 1 (n = 8), 200 mg artefenomel plus 100 mg DSM265; read-out: tmax, median
Listed below: Tmax values for each entry.
measurement-label: Tmax (h)

* c1cc([C@H]2CC[C@]3(CC2)OO[C@]2(O3)C3CC4CC(C3)CC2C4)ccc1OCCN1CCOCC1 [Artefenomel] | 3
* Cc1cc(Nc2ccc(S(F)(F)(F)(F)F)cc2)n2nc(C(C)(F)F)nc2n1 [DSM265] | 2

* * *

# assay-protocol: Noncompartmental pharmacokinetic analysis of plasma concentrations after single oral dose of artefenomel and DSM265 in combination
# Type: in vivo, human
# condition-notes: human, plasma, oral, cohort 2 (n = 5), 200 mg artefenomel plus 50 mg DSM265; read-out: t1/2, range
measurement-label: half-life

- Cc1cc(Nc2ccc(S(F)(F)(F)(F)F)cc2)n2nc(C(C)(F)F)nc2n1 [DSM265]: 75 to 134 h

* * *

# assay-protocol: Noncompartmental pharmacokinetic analysis of plasma concentrations after single oral dose of artefenomel and DSM265 in combination
# Type: in vivo, human
# condition-notes: human, plasma, oral, cohort 1 (n = 8), 200 mg artefenomel plus 100 mg DSM265; read-out: AUC0–last, geometric mean
Listed below: AUC(0-t) values for each entry.
measurement-label: AUC(0-t)

• Cc1cc(Nc2ccc(S(F)(F)(F)(F)F)cc2)n2nc(C(C)(F)F)nc2n1 [DSM265] = 434 µg·h/mL
• c1cc([C@H]2CC[C@]3(CC2)OO[C@]2(O3)C3CC4CC(C3)CC2C4)ccc1OCCN1CCOCC1 [Artefenomel] = 3.01 µg·h/mL

* * *

Listed below: AUC(0-t) values for each entry.
# assay-protocol: Noncompartmental pharmacokinetic analysis of plasma concentrations after single oral dose of artefenomel and DSM265 in combination
# Assay type: in vivo, human
# condition-notes: human, plasma, oral, cohort 1 (n = 8), 200 mg artefenomel plus 100 mg DSM265; read-out: AUC0–last, range
measurement-label: AUC(0-t)

- Cc1cc(Nc2ccc(S(F)(F)(F)(F)F)cc2)n2nc(C(C)(F)F)nc2n1 [DSM265]: 329 to 502 µg·h/mL
- c1cc([C@H]2CC[C@]3(CC2)OO[C@]2(O3)C3CC4CC(C3)CC2C4)ccc1OCCN1CCOCC1 [Artefenomel]: 1.11 to 4.96 µg·h/mL

* * *

# assay-protocol: Noncompartmental pharmacokinetic analysis of plasma concentrations after single oral dose of artefenomel and DSM265 in combination
# Format: in vivo, human
# condition-notes: human, plasma, po, cohort 1 (n = 8), single oral dose 200 mg artefenomel plus 100 mg DSM265, plasma; read-out: Cmax, geometric mean
Listed below: Cmax values for each entry.
measurement-label: Cmax

- Cc1cc(Nc2ccc(S(F)(F)(F)(F)F)cc2)n2nc(C(C)(F)F)nc2n1: 5440 ng/mL
- c1cc([C@H]2CC[C@]3(CC2)OO[C@]2(O3)C3CC4CC(C3)CC2C4)ccc1OCCN1CCOCC1: 372 ng/mL

* * *

Listed below: AUC(0-inf) values for each entry.
# assay-protocol: Noncompartmental pharmacokinetic analysis of plasma concentrations after single oral dose of artefenomel and DSM265 in combination
# Format: in vivo, human
# condition-notes: human, plasma, oral, cohort 2 (n = 5), 200 mg artefenomel plus 50 mg DSM265; read-out: AUC0–∞, geometric mean
measurement-label: AUC(0-inf) (µg·h/mL)

* Cc1cc(Nc2ccc(S(F)(F)(F)(F)F)cc2)n2nc(C(C)(F)F)nc2n1 | 271
* c1cc([C@H]2CC[C@]3(CC2)OO[C@]2(O3)C3CC4CC(C3)CC2C4)ccc1OCCN1CCOCC1 | 3.32

* * *

Listed below: Tmax values for each entry.
# assay-protocol: Noncompartmental pharmacokinetic analysis of plasma concentrations after single oral dose of artefenomel and DSM265 in combination
# Type: in vivo, human
# condition-notes: human, plasma, oral, cohort 2 (n = 5), 200 mg artefenomel plus 50 mg DSM265; read-out: tmax, range
measurement-label: Tmax

- Cc1cc(Nc2ccc(S(F)(F)(F)(F)F)cc2)n2nc(C(C)(F)F)nc2n1: 1 to 2 h
- c1cc([C@H]2CC[C@]3(CC2)OO[C@]2(O3)C3CC4CC(C3)CC2C4)ccc1OCCN1CCOCC1: 1 to 6 h

* * *

Listed below: AUC(0-t) values for each entry.
# assay-protocol: Noncompartmental pharmacokinetic analysis of plasma concentrations after single oral dose of artefenomel and DSM265 in combination
# Format: in vivo, human
# condition-notes: human, plasma, oral, cohort 2 (n = 5), 200 mg artefenomel plus 50 mg DSM265; read-out: AUC0–last, geometric mean
measurement-label: AUC(0-t) (µg·h/mL)

• c1cc([C@H]2CC[C@]3(CC2)OO[C@]2(O3)C3CC4CC(C3)CC2C4)ccc1OCCN1CCOCC1 = 3.25
• Cc1cc(Nc2ccc(S(F)(F)(F)(F)F)cc2)n2nc(C(C)(F)F)nc2n1 = 232
